Target: T1, rHuman EGF R/Fc Chimera, CF (human, UniProt P00533 25-645)
T1 construct: Bought from R&D Systems; also called epidermal growth factor receptor; not shown: Fc of the bought chimera
Assay: ECL Multispot (MSD) assay; antigen spotted on plate, Fab in solution;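 note: fab bound 1 h at 20 °C, detected by TAG-labelled antibody electrochemiluminescence, signal relative to each well's blank, ratio of 4 or more marks a hit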
readout_name: ECL signal
Kindly provide the number alone.

The reported ECL signal of the binder Fab VH1-46_IGHD6-6*01_IGHJ1*01 S102A/S103P/S104F/H111F (APFF) & L6_IGKJ1*01 S28V (Fab, V domains shown, Fab made in E. coli; the variable domains were cloned into Plasmid A (CH1, His and Flag tags) and Plasmid C (kappa CL); also called APFF / S28V) VH: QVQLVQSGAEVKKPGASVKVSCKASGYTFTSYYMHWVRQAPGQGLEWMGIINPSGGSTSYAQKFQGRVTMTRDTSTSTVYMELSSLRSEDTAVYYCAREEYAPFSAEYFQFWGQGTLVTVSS VL: EIVLTQSPATLSLSPGERATLSCRASQVVSSYLAWYQQKPGQAPRLLIYDASNRATGIPARFSGSGSGTDFTLTISSLEPEDFAVYYCQQRSNWPPWTFGQGTKVEIKR was 327

The reported ECL signal of the binder Fab VH1-46_IGHD6-6*01_IGHJ1*01 S102A/S103P/S104F/H111F (APFF) & L6_IGKJ1*01 S28K (Fab, V domains shown, Fab made in E. coli; the variable domains were cloned into Plasmid A (CH1, His and Flag tags) and Plasmid C (kappa CL); also called APFF / S28K) VH: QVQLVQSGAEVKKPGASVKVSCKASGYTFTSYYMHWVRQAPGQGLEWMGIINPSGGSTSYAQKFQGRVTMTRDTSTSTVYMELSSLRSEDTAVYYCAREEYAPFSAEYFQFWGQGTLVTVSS VL: EIVLTQSPATLSLSPGERATLSCRASQKVSSYLAWYQQKPGQAPRLLIYDASNRATGIPARFSGSGSGTDFTLTISSLEPEDFAVYYCQQRSNWPPWTFGQGTKVEIKR was 386

The reported ECL signal of the binder Fab VH1-46_IGHD6-6*01_IGHJ1*01 S102A/S103P/S104F/H111F (APFF) & L6_IGKJ1*01 S28P (Fab, V domains shown, Fab made in E. coli; the variable domains were cloned into Plasmid A (CH1, His and Flag tags) and Plasmid C (kappa CL); also called APFF / S28P) VH: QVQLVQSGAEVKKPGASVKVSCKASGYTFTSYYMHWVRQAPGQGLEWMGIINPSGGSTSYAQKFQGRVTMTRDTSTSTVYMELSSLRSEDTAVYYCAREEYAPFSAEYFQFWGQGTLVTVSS VL: EIVLTQSPATLSLSPGERATLSCRASQPVSSYLAWYQQKPGQAPRLLIYDASNRATGIPARFSGSGSGTDFTLTISSLEPEDFAVYYCQQRSNWPPWTFGQGTKVEIKR was 370
